- Test system: TP53
- test protocol: 3' UTR reporter interaction score (median-centred robust z-score of log2 firefly/Renilla activity); higher = less repression of the 3' UTR reporter
- measurement setup: HEK293T; 48 h
observable: 3' UTR reporter interaction score

sequence input | reading
GGCUGGCUCGCGAUGUCUGUUU | 0.4
UAGUGCAAUAUUGCUUAUAGGGUUU | -1.04
AGGCAGUGUAUUGUUAGCUGGC | 1.19
AGGAGGCAGCGCUCUCAGGAC | -0.457
UACUGCAUCAGGAACUGAUUGGAU | -0.963
GUGCCGCCAUCUUUUGAGUGU | 0.183
CAAAGCGCUUCUCUUUAGAGUG | 0.068
CUUGGUUCAGGGAGGGUCCCCA | -0.22
UCCAGCAUCAGUGAUUUUGUUGA | -0.53
UUUCCAUAGGUGAUGAGUCAC | -0.699
GAAGUGCUUCGAUUUUGGGGUGU | -1.53
UGUCAGUUUGUCAAAUACCCC | -1.17
UCCCACGUUGUGGCCCAGCAG | 0.863
UUUAGGAUAAGCUUGACUUUUG | 0.0255
AGGCGGGGCGCCGCGGGACCGC | -0.353
GUGUCUUUUGCUCUGCAGUCA | 0.375
ACUCAAAACCCUUCAGUGACUU | 1.13
UUGCAUAUGUAGGAUGUCCCAU | 0.961
UAGGUUAUCCGUGUUGCCUUCG | -0.804
UAAAUCCCAUGGUGCCUUCUCCU | 0.00864
AAUGGCGCCACUAGGGUUGUGCA | -0.436
UAGCAGCACAUAAUGGUUUGUG | -0.405
UGACAACUAUGGAUGAGCUCU | 0.025
AAUCCUUUGUCCCUGGGUGAGA | -0.735
AAAGUGCUUCCUUUUAGAGGG | 0.0995
CUCUAGAGGGAAGCACUUUCU | -0.127
UCUACAAAGGGAAGCCCUUUCUG | -0.365
AACUGGCCUACAAAGUCCCAG | -0.0425
UACCCUGUAGAACCGAAUUUGU | -0.546
CAAAGCGCUCCCCUUUAGAGGU | -0.173
ACAGCAGGCACAGACAGGCAG | -0.292
CCCAGAUAAUGGCACUCUCAA | -0.804

----------
Each entry below carries its reported 3' UTR reporter interaction score.
- Tested on: EZH2
- test protocol: 3' UTR reporter interaction score (median-centred robust z-score of log2 firefly/Renilla activity); higher = less repression of the 3' UTR reporter
- measurement setup: HEK293T; 48 h

sequence input | 3' UTR reporter interaction score
UGCACCAUGGUUGUCUGAGCAUG | 0.00438
UCCCUGUCCUCCAGGAGCUCA | 0.643
UUCAAGUAAUUCAGGAUAGGUU | -4.18
AUGUAUGUGUGCAUGUGCAUG | 1.67
AGGUUGACAUACGUUUCCC | -0.54
AAAGUGCUUCCUUUUAGAGGGUU | -1.12
UCAAAUGCUCAGACUCCUGU | 0.251
UAAGUGCUUCCAUGUUUUAGUAG | -0.765

----------
- Test system: PHF6
- test protocol: 3' UTR reporter interaction score (median-centred robust z-score of log2 firefly/Renilla activity); higher = less repression of the 3' UTR reporter
- measurement setup: HEK293T; 48 h

sequence input | 3' UTR reporter interaction score
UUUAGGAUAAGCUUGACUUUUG | -0.597
UAUGUGCCUUUGGACUACAUCG | 0.707
AAAGUGCUGUUCGUGCAGGUAG | 0.684
GGCAAGAUGCUGGCAUAGCUG | -1.44
UACAGUACUGUGAUAACUGAAG | -0.261
CUGGGAUCUCCGGGGUCUUGGUU | -0.552
UGUAACAGCAACUCCAUGUGGA | 1.94
UGAGCUGCUGUACCAAAAU | 0.476
UGAGGUAGUAGUUUGUGCUGU | 0.213
GCAAAGCACACGGCCUGCAGAGA | 1.65
UGUAAACAUCCCCGACUGGAAG | 0.331
ACUUGGGCACUGAAACAAUGUCC | 1.39
AUCACACAAAGGCAACUUUUGU | -0.33
ACUUACAGACAAGAGCCUUGCUC | -1.11
AGGAAGCCCUGGAGGGGCUGGAGGU | -0.529
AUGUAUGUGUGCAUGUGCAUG | -1.08
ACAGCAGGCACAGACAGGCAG | 1.37
CUUUCAGUCGGAUGUUUGCAGC | -0.502
AUCACAUUGCCAGGGAUUUCC | 0.394
AAACAAACAUGGUGCACUUCUUU | -1.41
UGGCUCAGUUCAGCAGGAACAG | -0.0264
AAUAUUAUACAGUCAACCUCU | -1.02
UAAGGUGCAUCUAGUGCAGUUA | -1.71
UGUAGUGUUUCCUACUUUAUGGA | -0.93
UAGCAGCACGUAAAUAUUGGCG | -0.551
UGAGGUAGUAGGUUGUGUGGUU | 0.852
AUAAGACGAGCAAAAAGCUUGU | -0.375
AGUUAAUGAAUCCUGGAAAGU | -0.54
AAGCUGCCAGUUGAAGAACUGU | -0.206
ACUUCACCUGGUCCACUAGCCGU | 0.576
UCUACAGUGCACGUGUCU | -1.18
CAUCUUACCGGACAGUGCUGGA | 0.881
GUCCGCUCGGCGGUGGCCCA | 0.23
UUUUUGCGAUGUGUUCCUAAUA | 0.21
CACCCGUAGAACCGACCUUGCG | -0.967
AGGGGUGGUGUUGGGACAGCUCCGU | -0.137
UCUAGGCUGGUACUGCUGA | -0.473
UAUGGCUUUUCAUUCCUAUGUG | -0.00424
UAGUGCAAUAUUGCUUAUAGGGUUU | 0.108
UAACAGUCUCCAGUCACGGCC | -0.767
UAUGGCUUUUUAUUCCUAUGUGA | 0.879
UCUCCCAACCCUUGUACCAGUG | 0.168
AGAGGUAUAGGGCAUGGGAAAA | 0.541
AGGGUGUUUCUCUCAUCUCU | 1.32
GAAGGCGCUUCCCUUUAGAGC | 0.189
AAAGCGCUUCCCUUCAGAGUGU | 0.134
AUUCUAAUUUCUCCACGUCUUUG | -1.02
UUACAGUUGUUCAACCAGUUACU | 1.47
UAGGCAGUGUCAUUAGCUGAUUG | 0.274
ACAAAGUGCUUCCCUUUAGAGUGU | -0.618
UCCAGCUCCUAUAUGAUGCCUUU | -0.704
UAAUACUGCCUGGUAAUGAUGAC | 2
UAAAGCUAGAUAACCGAAAGU | -0.609
AUCCCUUGCAGGGGCUGUUGGGU | -0.0289
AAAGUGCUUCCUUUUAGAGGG | 0.188
AACGCGCUUCCCUAUAGAGGG | 0.0798
UCUGGCUCCGUGUCUUCACUCC | -0.567
AAUUGCACGGUAUCCAUCUGUA | 0.891
GUCCCUCUCCAAAUGUGUCUUG | -1.08
AAAGUGCAUCCUUUUAGAGGUUU | -0.0516
CCACUGCCCCAGGUGCUGCUGG | 0.422
UCACAGUGAACCGGUCUCUUUC | -3.58
GAGCUUAUUCAUAAAAGUGCAG | -0.038
AAUCCUUGGAACCUAGGUGUGAGU | 0.0671

----------
- Test system: ZEB2
- test protocol: 3' UTR reporter interaction score (median-centred robust z-score of log2 firefly/Renilla activity); higher = less repression of the 3' UTR reporter
- measurement setup: HEK293T; 48 h
Assign 1 whenever 3' UTR reporter interaction score does not fall below 0.6; assign 0 whenever it does.

sequence input | assigned class
AAAGUGCUUCUCUUUGGUGGGUU | 1
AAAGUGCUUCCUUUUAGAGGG | 0
UCAAGAGCAAUAACGAAAAAUGU | 1
UUGGCCACAAUGGGUUAGAAC | 0
UAACAGUCUACAGCCAUGGUCG | 0
AGGGAUCGCGGGCGGGUGGCGGCCU | 0
GCUGCGCUUGGAUUUCGUCCCC | 1
UAGCACCAUUUGAAAUCAGUGUU | 0
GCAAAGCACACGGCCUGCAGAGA | 0
AACAUUCAUUGCUGUCGGUGGG | 0
AGGUUACCCGAGCAACUUUGCA | 0
UAGCACCAUCUGAAAUCGGUU | 0
UUCUCCAAAAGAAAGCACUUUCUG | 1
UUAAGGCACGCGGUGAAUGCCA | 0
AGAUCGACCGUGUUAUAUUCGC | 0

Reference source: the supplement of paper PMC5844555
